Give measured TGI for each item. Keep answers brief.
Tested on: SW-620 colon
Assay: NCI tumour cell line growth inhibition, 48 h

Some solved entries appear below for comparison.
O=C(CSc1nc2ccc(I)cc2c(=O)n1Cc1ccccc1)NN1C(=O)CSC1c1ccccc1 (stereo not given)    > 100 µM
OCCSCC/C(=N\N=C(/CCSCCO)c1ccccc1)c1ccccc1    > 100 µM
C=C(C[C@@H](O)[C@H](C)NC(=O)OCc1ccccc1)C(=O)OC(C)(C)C    > 100 µM
COC(=O)C1Cc2c([nH]c3ccccc23)-c2[nH]c3ccccc3c2CC(NC(C)=O)C(=O)NCC(=O)NCC(=O)N1 (stereo not given)    > 100 µM
O=C(Nc1ccccc1[N+](=O)[O-])C(=O)C(C(=O)c1ccccc1-c1ccccc1)C1OC(=O)c2ccccc21 (stereo not given)    36.7 µM
O=C1c2ccccc2C(=O)c2sc(Nc3ccc(Cl)cc3)nc21    3.31 µM
CN(N=O)C(=O)Nc1ccc(C(=O)O)cc1    > 100 µM
O=C1Nc2ccc(CN3CCOC3=O)cc2/C1=C/c1cc(CN2CCOCC2)c[nH]1    > 100 µM
Cc1ccc(S(=O)(=O)NNC(C[N+](=O)[O-])c2ccccc2)cc1 (stereo not given)    > 100 µM

TGI lookup needed for `N=C1N=C(N)S/C1=C\c1ccc2ncccc2c1` , thanks. > 25 µM
